# test.system: human MPC1L/MPC2 complex (Homo sapiens, UniProt O95563+P0DKB6)
# Construct: eight-histidine tag (C, cleaved yes); TEV protease cleavage site (part stays on MPC2 after digestion) (C, cleaved yes); made in house; host or cells: Saccharomyces cerevisiae SHY15 (mpc triple deletion strain), purified from mitochondria
# Sequence (P0DKB6 2-136): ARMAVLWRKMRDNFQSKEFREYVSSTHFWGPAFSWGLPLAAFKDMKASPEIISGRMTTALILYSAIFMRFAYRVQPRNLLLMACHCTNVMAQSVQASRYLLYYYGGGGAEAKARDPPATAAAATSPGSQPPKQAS
# Sequence (O95563 2-127): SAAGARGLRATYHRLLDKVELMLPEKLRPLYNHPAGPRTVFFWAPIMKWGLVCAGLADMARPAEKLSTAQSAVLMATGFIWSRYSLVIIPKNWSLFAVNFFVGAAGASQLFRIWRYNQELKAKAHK
# protocol.summary: nano-DSF thermostability shift assay, purified MPC1L/MPC2
# Assay type: binding
# cond: inhibitor 100 μM
The entries below are paired with their reported ∆Tm, nano-DSF.
# value in °C; strip the unit string

Data request: Sample CCCC(CCC)C(=O)O [Valproic acid, valproic acid] — what was its ∆Tm, nano-DSF?
Data returned: -0.1

Others:
Data request: Could you tell me which ∆Tm, nano-DSF is on file for CCCOc1ccccc1-c1nc2nn[nH]c2c(=O)[nH]1 [Zaprinast] ?
Data returned: 6.3

Data request: # input compound: CCN(CC)C(=O)/C(C#N)=C/c1cc(O)c(O)c([N+](=O)[O-])c1 [Entacapone] ; wanted: its ∆Tm, nano-DSF
Data returned: 6.3

Data request: Item COc1cc(C2Oc3cc([C@H]4Oc5cc(O)cc(O)c5C(=O)[C@@H]4O)ccc3OC2CO)ccc1O (some centres unmarked) [Silibinin] has what recorded ∆Tm, nano-DSF?
Data returned: 0.2

Data request: Need ∆Tm, nano-DSF, item O=C(O)c1nn(Cc2ccc(Cl)cc2Cl)c2ccccc12 [Lonidamine, lonidamine]
Data returned: 0.6

* * *

Measured Mass difference (observed vs calculated), MPC1L (2–136) of individual entries
# test.system: recombinant human MPC1L/MPC2 (Homo sapiens, UniProt O95563+P0DKB6)
# Construct: MPC1L (2–136); MPC2 (2–137); eight-histidine tag (C, cleaved yes); TEV protease cleavage site (part stays on MPC2 after digestion) (C, cleaved yes); made in house; host or cells: Saccharomyces cerevisiae SHY15 (mpc triple deletion strain), purified from mitochondria
# Sequence (P0DKB6 2-136 limits assumed): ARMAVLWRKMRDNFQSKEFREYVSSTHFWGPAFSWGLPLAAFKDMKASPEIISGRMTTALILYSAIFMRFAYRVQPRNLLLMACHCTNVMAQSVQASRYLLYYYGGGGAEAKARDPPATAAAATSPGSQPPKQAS
# Sequence (O95563 2-127 limits assumed): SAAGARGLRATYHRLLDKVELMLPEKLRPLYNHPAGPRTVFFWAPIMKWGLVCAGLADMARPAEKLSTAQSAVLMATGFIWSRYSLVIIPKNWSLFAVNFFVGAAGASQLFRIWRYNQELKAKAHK
# protocol.summary: Electrospray mass spectrometry of MPC1L/MPC2 after reaction with inhibitors or sulfhydryl modifiers
# cond: MPC1L/MPC2 after reaction with compound
Write the answer as a number in Da, unit excluded.

Completed entries (count: 2):
Data request: Which Mass difference (observed vs calculated), MPC1L (2–136) is listed for N#CC(=Cc1cn(-c2ccccc2)c2ccccc12)C(=O)O [UK5099, α-cyano-β-(1-phenylindol-3-yl)-acrylate] ?
Data returned: 0.6

Data request: Could you tell me which Mass difference (observed vs calculated), MPC1L (2–136) is on file for `CCCOc1ccccc1-c1nc2nn[nH]c2c(=O)[nH]1` ?
Data returned: 0.4

Further cases:
Data request: Which value of Mass difference (observed vs calculated), MPC1L (2–136) has been reported for `N#C/C(=C/c1ccc(-c2ccccc2[N+](=O)[O-])o1)C(=O)O` in the records?
Data returned: 0.5

* * *

# Lookup of reported ΔTm at 100 µM keyed by entry
# test.system: human MPC1L/MPC2 complex (Homo sapiens, UniProt O95563+P0DKB6)
# Construct: eight-histidine tag (C, cleaved yes); TEV protease cleavage site (part stays on MPC2 after digestion) (C, cleaved yes); made in house; host or cells: Saccharomyces cerevisiae SHY15 (mpc triple deletion strain), purified from mitochondria
# Sequence (P0DKB6 2-136): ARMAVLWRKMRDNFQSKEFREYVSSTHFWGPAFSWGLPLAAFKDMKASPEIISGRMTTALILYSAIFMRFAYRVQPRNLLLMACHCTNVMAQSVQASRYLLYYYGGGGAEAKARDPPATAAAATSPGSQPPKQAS
# Sequence (O95563 2-127): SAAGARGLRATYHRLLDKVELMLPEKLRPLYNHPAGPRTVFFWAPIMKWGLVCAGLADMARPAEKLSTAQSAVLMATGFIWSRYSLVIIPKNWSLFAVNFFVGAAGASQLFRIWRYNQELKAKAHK
# protocol.summary: CPM thermostability shift assay, purified MPC1L/MPC2
# Assay type: binding
# cond: inhibitor 100 μM; read-out: ∆Tm, CPM assay (thermal shift compared to no-ligand control)
// units = °C; emit number, no label

Data request: Provide the documented ΔTm at 100 µM with human MPC1L/MPC2 complex (Homo sapiens, UniProt O95563+P0DKB6) as the system for N#C/C(=C/c1ccc(-c2ccccc2[N+](=O)[O-])o1)C(=O)O [Compound 7]
Data returned: 16.5

Data request: Kindly state the measured ΔTm at 100 µM obtained for CN(CCOc1ccc(CC2SC(=O)NC2=O)cc1)c1ccccn1 (centres unmarked) [Rosiglitazone, rosiglitazone] with human MPC1L/MPC2 complex (Homo sapiens, UniProt O95563+P0DKB6).
Data returned: 5.3

Data request: human MPC1L/MPC2 complex (Homo sapiens, UniProt O95563+P0DKB6) / ΔTm at 100 µM / N#C/C(=C/c1ccc(-c2ccc(Cl)cc2)o1)C(=O)O [Compound 5] : value?
Data returned: 9

Data request: I'm curious: which ΔTm at 100 µM was measured for N#CC(=Cc1ccc(O)cc1)C(=O)O [CHC, α-cyano-4-hydroxy-cinnamate] tested on human MPC1L/MPC2 complex (Homo sapiens, UniProt O95563+P0DKB6)?
Data returned: 8.3

Data request: # get_value(readout= ΔTm at 100 µM, system= human MPC1L/MPC2 complex (Homo sapiens, UniProt O95563+P0DKB6)) for N#C/C(=C/c1ccc(-c2ccccc2Cl)o1)C(=O)O [Compound 8]
Data returned: 11

* * *

# test.system: human MPC1L/MPC2 complex (Homo sapiens, UniProt O95563+P0DKB6)
# Construct: eight-histidine tag (C, cleaved yes); TEV protease cleavage site (part stays on MPC2 after digestion) (C, cleaved yes); made in house; host or cells: Saccharomyces cerevisiae SHY15 (mpc triple deletion strain), purified from mitochondria
# protocol.summary: CPM thermostability shift assay, purified MPC1L/MPC2
# Assay type: binding
# cond: inhibitor 100 μM; unliganded 51.3 ± 0.2; mean ± s.d., 3 biological repeats
test.readout: Tm, CPM assay (°C)
Just the number please, in °C, no unit attached.

Below: 5 compounds and their reported Tm, CPM assay.
Data request: Which Tm, CPM assay is reported with human MPC1L/MPC2 complex (Homo sapiens, UniProt O95563+P0DKB6) for this entry: `N#C/C(=C/c1ccc(-c2ccc(F)cc2)o1)C(=O)O` ?
Data returned: 60.4

Data request: Any idea what Tm, CPM assay came out for `O=C(O)c1nn(Cc2ccc(Cl)cc2Cl)c2ccccc12` on human MPC1L/MPC2 complex (Homo sapiens, UniProt O95563+P0DKB6)?
Data returned: 51.1

Data request: For the record CCc1ccc(CCOc2ccc(CC3SC(=O)NC3=O)cc2)nc1 (stereo not drawn) , what value of Tm, CPM assay is listed for human MPC1L/MPC2 complex (Homo sapiens, UniProt O95563+P0DKB6)?
Data returned: 56.4

Data request: Record lookup: for human MPC1L/MPC2 complex (Homo sapiens, UniProt O95563+P0DKB6), what Tm, CPM assay belongs to `N#C/C(=C/c1ccc(-c2ccccc2[N+](=O)[O-])o1)C(=O)O` ?
Data returned: 67.8

Data request: Notebook: pull reported Tm, CPM assay for human MPC1L/MPC2 complex (Homo sapiens, UniProt O95563+P0DKB6), entry `N#C/C(=C/c1ccc(-c2ccc(Br)cc2)o1)C(=O)O`
Data returned: 59.7

Next:
Data request: Requested read-out Tm, CPM assay, target or system human MPC1L/MPC2 complex (Homo sapiens, UniProt O95563+P0DKB6), entry `O=C1NC(=O)C(=Cc2ccc(-c3ccccc3[N+](=O)[O-])o2)C(=O)N1`
Data returned: 57.7

Data request: Notebook: pull reported Tm, CPM assay for human MPC1L/MPC2 complex (Homo sapiens, UniProt O95563+P0DKB6), entry CCc1ccc(C(=O)COc2ccc(CC3SC(=O)NC3=O)cc2)nc1 (stereo not drawn)
Data returned: 56.7

Data request: Form field - read-out: Tm, CPM assay; system: human MPC1L/MPC2 complex (Homo sapiens, UniProt O95563+P0DKB6); submitted item: `N#C/C(=C/c1ccc(-c2cccc([N+](=O)[O-])c2)o1)C(=O)O`
Data returned: 63.0

Data request: Tell me reported Tm, CPM assay for N#CC(=Cc1cn(-c2ccccc2)c2ccccc12)C(=O)O [UK5099, α-cyano-β-(1-phenylindol-3-yl)-acrylate] , tested with human MPC1L/MPC2 complex (Homo sapiens, UniProt O95563+P0DKB6).
Data returned: 62.5

Data request: Entry `CN1C(=O)NC(=O)/C(=C/c2ccc(-c3ccccc3[N+](=O)[O-])o2)C1=O` , system human MPC1L/MPC2 complex (Homo sapiens, UniProt O95563+P0DKB6): what Tm, CPM assay was measured?
Data returned: 60.4

Data request: Hello, I am looking for reported Tm, CPM assay with human MPC1L/MPC2 complex (Homo sapiens, UniProt O95563+P0DKB6) for `CCCOc1ccccc1-c1nc2nn[nH]c2c(=O)[nH]1` . Could you help?
Data returned: 58.8

Data request: Kindly state the measured Tm, CPM assay obtained for `C=CCN1C(=O)NC(=O)/C(=C/c2ccc(-c3ccccc3[N+](=O)[O-])o2)C1=O` with human MPC1L/MPC2 complex (Homo sapiens, UniProt O95563+P0DKB6).
Data returned: 58.7

Data request: Record N#CC(=Cc1ccc(O)cc1)C(=O)O [CHC, α-cyano-4-hydroxy-cinnamate] : what is its Tm, CPM assay with human MPC1L/MPC2 complex (Homo sapiens, UniProt O95563+P0DKB6)?
Data returned: 59.6

Data request: Find Tm, CPM assay (human MPC1L/MPC2 complex (Homo sapiens, UniProt O95563+P0DKB6)) for the entry `O=C(O)C(=Cc1ccc(-c2ccccc2[N+](=O)[O-])o1)C(=O)O`
Data returned: 51.2

Data request: Lookup: Tm, CPM assay / human MPC1L/MPC2 complex (Homo sapiens, UniProt O95563+P0DKB6) / `CCCC(CCC)C(=O)O`
Data returned: 51.3

Data request: Return Tm, CPM assay measured with human MPC1L/MPC2 complex (Homo sapiens, UniProt O95563+P0DKB6) given this compound: `N#C/C(=C/c1ccc(-c2ccccc2Cl)o1)C(=O)O`
Data returned: 62.3

Data request: Find the measured Tm, CPM assay: item COc1cc(C2Oc3cc([C@H]4Oc5cc(O)cc(O)c5C(=O)[C@@H]4O)ccc3OC2CO)ccc1O (stereo partly drawn) , target or system human MPC1L/MPC2 complex (Homo sapiens, UniProt O95563+P0DKB6).
Data returned: 51.4

Data request: Hi! What's the reported Tm, CPM assay for `COc1ccc(/C=C(/C#N)C(=O)O)cc1` on human MPC1L/MPC2 complex (Homo sapiens, UniProt O95563+P0DKB6)?
Data returned: 60.4

Data request: # returns recorded Tm, CPM assay (system: human MPC1L/MPC2 complex (Homo sapiens, UniProt O95563+P0DKB6)) for `N#C/C(=C/c1ccc(-c2cccc(C(F)(F)F)c2)o1)C(=O)O`
Data returned: 59.8

Data request: Short answer please: Tm, CPM assay, human MPC1L/MPC2 complex (Homo sapiens, UniProt O95563+P0DKB6), entry `N#C/C(=C/c1ccc(-c2ccc(Cl)cc2)o1)C(=O)O`
Data returned: 60.3

Data request: Provide value of Tm, CPM assay for this record tested with human MPC1L/MPC2 complex (Homo sapiens, UniProt O95563+P0DKB6): CN(CCOc1ccc(CC2SC(=O)NC2=O)cc1)c1ccccn1 (stereo not drawn)
Data returned: 56.6
